Attribution: patent US20250270190A1

# system.under.test: c-kit autophosphorylation (Phospho c-Kit Tyr721) in HMC 1.1 (exon 11/13) cells, V654A (Homo sapiens, UniProt P10721, V560G/V654A)
# Construct: endogenous in cells
# Sequence (P10721 26-976 V560G/V654A): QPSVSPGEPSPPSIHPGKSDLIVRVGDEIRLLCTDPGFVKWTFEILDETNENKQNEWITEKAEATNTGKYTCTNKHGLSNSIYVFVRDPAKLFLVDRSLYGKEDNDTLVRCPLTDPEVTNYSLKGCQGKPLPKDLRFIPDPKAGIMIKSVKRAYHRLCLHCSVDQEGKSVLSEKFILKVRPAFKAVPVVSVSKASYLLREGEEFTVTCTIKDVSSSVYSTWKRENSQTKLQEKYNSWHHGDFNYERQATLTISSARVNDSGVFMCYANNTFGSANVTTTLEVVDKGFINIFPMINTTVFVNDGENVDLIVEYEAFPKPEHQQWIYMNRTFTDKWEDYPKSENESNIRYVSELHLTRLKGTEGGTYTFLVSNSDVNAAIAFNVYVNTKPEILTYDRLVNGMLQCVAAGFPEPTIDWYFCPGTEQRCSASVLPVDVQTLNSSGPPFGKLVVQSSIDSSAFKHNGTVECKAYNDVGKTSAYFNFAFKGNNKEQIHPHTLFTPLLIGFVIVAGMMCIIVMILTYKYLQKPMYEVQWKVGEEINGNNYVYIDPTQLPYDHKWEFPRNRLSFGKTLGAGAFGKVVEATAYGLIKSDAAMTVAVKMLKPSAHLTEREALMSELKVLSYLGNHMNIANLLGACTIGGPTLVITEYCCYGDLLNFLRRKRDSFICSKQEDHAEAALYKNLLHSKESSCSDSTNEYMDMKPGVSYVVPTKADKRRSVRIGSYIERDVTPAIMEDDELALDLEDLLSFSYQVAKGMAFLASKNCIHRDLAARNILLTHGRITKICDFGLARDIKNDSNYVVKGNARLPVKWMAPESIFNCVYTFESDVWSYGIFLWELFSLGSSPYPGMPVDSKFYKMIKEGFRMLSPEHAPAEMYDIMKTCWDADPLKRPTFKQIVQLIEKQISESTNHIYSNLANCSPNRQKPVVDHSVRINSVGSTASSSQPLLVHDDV
# assay: pKIT Meso Scale Discovery (MSD) assay, inhibition of autophosphorylation of KIT, HMC1.1_V654A
# particulars: Table 1, cell line not named for Table 1, b1056 names pKIT HMC1.1_V654A, read-out: Code (IC50 for inhibition of autophosphorylation of KIT, pKIT MSD assay)
pIC50: −log10 of the molar value.
pIC50 values by entry

[[record]]
compound = "COc1cc(Nc2cc(N)nc(C(F)F)n2)ncc1-c1cnn(C[C@H]2CCN2C)c1 (single isomer, unassigned)"
reported_measurement = "> 8.00"

[[record]]
compound = "CNC(C)(C)Cn1cc(-c2cnc(Nc3cc(N)nc(C(F)F)n3)cc2OC2CC2)cn1"
reported_measurement = "> 8.00"

[[record]]
compound = "Nc1cc(Nc2cc(NC3CC3)c(C(=O)N[C@H]3C[C@@H](O)C3)cn2)nc(C(F)F)n1"
reported_measurement = "7.40 to 8.00"


Memo: CNC(=O)c1cnc(Nc2cc(N)nc(C(F)F)n2)cc1NC , reported pIC50: > 8.00

Entry under test: CN(C)CCn1cc(-c2cnc(Nc3cc(N)nc(C(F)F)n3)cc2OC(F)(F)F)cn1 . Its pIC50 was > 8.00

Reported pIC50 of CCOc1cc(Nc2cc(N)nc(C(F)F)n2)ncc1-c1cnn(CCNC)c1 : > 8.00

Item: Nc1cc(Nc2cc(OC3CC3)c(-c3cnn(CCO)c3)cn2)nc(C(F)F)n1 | pIC50: > 8.00

Measured pIC50, Nc1cc(Nc2cc(OC3CC3)c(-c3cnn(CCN4CCC4)c3)cn2)nc(C(F)F)n1 : > 8.00

pIC50 reported for this compound CC(O)Cn1cc(-c2cnc(Nc3cc(N)nc(C(F)F)n3)cc2OC(F)F)cn1 (stereo not drawn) : > 8.00

Input CNC(C)(C)Cn1cc(-c2cnc(Nc3cc(N)nc(C(F)F)n3)cc2OC(F)F)cn1 . Output pIC50: > 8.00

According to the records, this compound CN1CC(n2cc(-c3cnc(Nc4cc(N)nc(C(F)F)n4)cc3OC[C@@H]3CCCO3)cn2)C1 displays pIC50 of 7.40 to 8.00

Kindly note the recorded pIC50 for C[C@H](CF)Nc1cc(Nc2cc(N)nc(C(F)F)n2)ncc1C(=O)NCc1ccccn1 , which is 7.40 to 8.00

Noted for CNc1cc(Nc2cc(N)nc(C(F)F)n2)ncc1-c1cnn(C)n1 : its pIC50 reads 7.40 to 8.00

Entry CNc1cc(Nc2cc(N)nc(C(F)F)n2)ncc1C(=O)NC1CC1 — recorded pIC50 = > 8.00

Record summary for Cn1cc(-c2cnc(Nc3cc(N)nc(C(F)F)n3)cc2O[C@H]2C[C@@H](O)C2)cn1 : reported pIC50 = 7.40 to 8.00

CC(C)Oc1cc(Nc2cc(N)nc([C@H](C)F)n2)ncc1-c1cnn([C@H]2CCOC2)c1 (single isomer, unassigned) has a reported pIC50 of > 8.00

Consider COc1cc(Nc2cc(N)nc(C(F)F)n2)ncc1-c1cnn(CCN(C)CC(F)(F)F)c1 . Its measured pIC50 is > 8.00

pIC50 reported for this compound CN(CCn1cc(-c2cnc(Nc3cc(N)nc(C(F)F)n3)cc2OC2CC2)cn1)CC(F)(F)F : > 8.00

The reported pIC50 of the compound C[C@@H](CF)Nc1cc(Nc2cc(N)nc(C(F)F)n2)ncc1C(=O)NCc1cocn1 was > 8.00
